System: EPHA4;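 further: kd values determined as follow-up on hits from a single-replicate KINOMEscan panel screen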
pKd: −log10 of the molar value.
Property: pKd

pKd of FC(F)(F)c1ccc(-c2nn3ncccc3c2-c2ccnc(Nc3cccc(C(F)(F)F)c3)n2)cc1 [GW828205] , assay on EPHA4, is < 5.00

====

Readings of %Inh for the listed compounds
Test system: DDR2;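 further: KINOMEscan kinase panel screen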
Test Conditions: concentration: 1 μM, replicates: in singlicate; n = 1
Lab book: enter the figure in %, no units written.

Before answering, review these 5 worked examples.
[
  {
    "Compound": "O=C(c1ccc(-c2cc(-c3c[nH]nc3-c3ccccn3)ccn2)cc1)N1CCCC1",
    "Observed": 24
  },
  {
    "Compound": "FC(F)(F)c1cc(Nc2nccc(-c3c(-c4ccc(Cl)cc4)nn4ncccc34)n2)ccc1Cl",
    "Observed": 30
  },
  {
    "Compound": "Cc1ccc(C)c(NC(=O)NCCNc2ccnc(Nc3ccc(F)cc3)n2)c1",
    "Observed": 15
  },
  {
    "Compound": "C[C@H]1CC[C@@H](C(=O)Nc2ccccc2)CN1c1cc(-c2ccc3c(N)n[nH]c3c2)nc(N)n1",
    "Observed": 5
  },
  {
    "Compound": "NC(=O)c1sc(-n2cnc3ccccc32)cc1OCc1ccccc1F",
    "Observed": 25
  }
]

For reference, reported %Inh for "CSc1ccc(NC2=C(c3ccccc3Cl)C(=O)NC2=O)cc1" stands at 0

For reference, reported %Inh for "FC(F)(F)c1ccc(-c2nn3ncccc3c2-c2ccnc(Nc3cccc(C(F)(F)F)c3)n2)cc1" stands at 25

For reference, reported %Inh for CC(C)(C)OC(=O)NC1CCCN(c2cc(-c3ccc4c(N)n[nH]c4c3)nc(N)n2)C1 (centres unmarked) stands at 0
